- Tested on: VchCAST RNA-guided transposition machinery (E. coli BL21(DE3) host, lacZ target)
- assay.text: relative integration efficiency (T-LR orientation) vs wild-type transposon end (log2 (normalized fold change)); transposon end mutated: right end (5 bp flank + 75 bp right end); higher = more efficient transposition
condition met means recorded relative integration efficiency (log2) is 0.9 or above; condition not met means it is below 0.9.

Say whether ACATTTGTTGATACAACCATAAAATGATAATATGTCCCATAAATTGATAATTATCACACCCATAAATTGATATTGCCTCTGATCATAGTCAGACCAACATTGCTACGACCCGTATTCGCACCGACAC shows relative integration efficiency (log2) of 0.9 or more.
condition not met

Say whether ACATGGGTTGATACAACCATAAAATGATAATTACACCCATAAATTGATAATTATCACACCCATAAATTGATATTGCCTCTGATCATAGTCAGACCAACATTGCTACGACCCGTATTCGCACCGACAC shows relative integration efficiency (log2) of 0.9 or more.
condition not met

Say whether ACATTTGTTGATACAACCATAAAATGATCATTACCCCCATAAATTGATAATTATCACACCCAATTTAACTATAACGCTCTGATCATAGTCAGACCAACATTGCTACGACCCGTATTCGCACCGACAC shows relative integration efficiency (log2) of 0.9 or more.
condition met

Say whether ACATTTGTTGATACAACCATAAAATGATAATTACACCCATAAATTGATAATTATCACACCCATAAATTGATATTGCCGATGATCATAGTCAGACCAACATTGCTACGACCCGTATTCGCACCGACAC shows relative integration efficiency (log2) of 0.9 or more.
condition not met

Say whether ACATTTGTTGATACAACCATATATTGATATCTCCACCCATAAATTGATATTGCTCAGTGGGTATTTAACTATAACGCTCTGATCATAGTCAGACCAACATTGCTACGACCCGTATTCGCACCGACAC shows relative integration efficiency (log2) of 0.9 or more.
condition met

Say whether ACATTTGTTGATACAACCATAAAATGATAATTACACAAATAAATTGATAATTATCACACCCATAAATTGATATTGCCTCTGATCATAGTCAGACCAACATTGCTACGACCCGTATTCGCACCGACAC shows relative integration efficiency (log2) of 0.9 or more.
condition not met

Say whether ACATTTGTTGATACAACCATAAAGTGATATTTACAACCATAAAATGATAATTATCACAACCATATATTGATATCTCCTCTGATCATAGTCAGACCAACATTGCTACGACCCGTATTCGCACCGACAC shows relative integration efficiency (log2) of 0.9 or more.
condition not met

Say whether ACATTTGTTGATACAACCATAAAATGATAACACCCATAAATTGATAATTATCACACCCATAAATTGATATTGCCTCTGATCATAGTCAGACCAACATTGCTACGACCCGTATTCGCACCGACACTGA shows relative integration efficiency (log2) of 0.9 or more.
condition not met

Say whether ACATTTGTTGATACAACCATAAAATGATAATTACACCCATAAATTGATAATTATCACACCCATAAATTGATATTGCCTCTGATAACTTCGTATAGCATACATTATACGAAGTTATTCGCACCGACAC shows relative integration efficiency (log2) of 0.9 or more.
condition met
